# Test system: HT-29
# EXPERIMENT SUMMARY: Cytotoxicity against human HT-29 cells assessed as cell growth at 10 uM after 48 hrs by SRB assay relative to control
# Assay type: functional
# CONDITIONS: HT-29, 48 h, read-out: Activity
Could you please report measured growth at 10 µM for the items listed next?
Write down the numeric answer in % and omit the unit.

Prompt: Any idea what growth at 10 µM was measured for `O=C1c2ccccc2C(=O)c2c1cc(SCc1ccc(Cl)cc1)c1nsnc21` ?
Response: 96.4

Prompt: Any idea what growth at 10 µM was measured for `O=C1c2ccccc2C(=O)c2c1cc(Sc1cccc(Cl)c1)c1nsnc21` ?
Response: 102

Prompt: Any idea what growth at 10 µM was measured for `CC(C)Sc1cc2c(c3nsnc13)C(=O)c1ccccc1C2=O` ?
Response: 48.1

Prompt: Any idea what growth at 10 µM was measured for `Cc1ccccc1Sc1cc2c(c3nsnc13)C(=O)c1ccccc1C2=O` ?
Response: 104

Prompt: Any idea what growth at 10 µM was measured for `Cc1cccc(C)c1Sc1cc2c(c3nsnc13)C(=O)c1ccccc1C2=O` ?
Response: 97.7

---

# Tested on: HT-29
# EXPERIMENT SUMMARY: Cytotoxicity against human HT-29 cells assessed as cell growth at 10 uM after 48 hrs by SRB assay relative to control
# Assay type: functional
# CONDITIONS: HT-29, 48 h, read-out: Activity
Could you please report measured growth at 10 µM for the items listed next?
Write down the numeric answer in % and omit the unit.

Prompt: Any idea what growth at 10 µM was measured for `Cc1ccc(Sc2cc3c(c4nsnc24)C(=O)c2ccccc2C3=O)c(C)c1` ?
Response: 101

Prompt: Any idea what growth at 10 µM was measured for `CSc1ccc(Sc2cc3c(c4nsnc24)C(=O)c2ccccc2C3=O)cc1` ?
Response: 102

Prompt: Any idea what growth at 10 µM was measured for `O=C1c2ccccc2C(=O)c2c1cc(Sc1cc(Cl)ccc1Cl)c1nsnc21` ?
Response: 106

Prompt: Any idea what growth at 10 µM was measured for `CCOc1cccc(Sc2cc3c(c4nsnc24)C(=O)c2ccccc2C3=O)c1` ?
Response: 106

Prompt: Any idea what growth at 10 µM was measured for `Cc1cc(C)cc(Sc2cc3c(c4nsnc24)C(=O)c2ccccc2C3=O)c1` ?
Response: 105

Prompt: Any idea what growth at 10 µM was measured for `COc1cccc(Sc2cc3c(c4nsnc24)C(=O)c2ccccc2C3=O)c1` ?
Response: 105

Prompt: Any idea what growth at 10 µM was measured for `O=C1c2ccccc2C(=O)c2c1cc(Sc1ccccc1Br)c1nsnc21` ?
Response: 96.5

Prompt: Any idea what growth at 10 µM was measured for `O=C1c2ccccc2C(=O)c2c1ccc1nsnc21` ?
Response: 117

Prompt: Any idea what growth at 10 µM was measured for `O=C1c2ccccc2C(=O)c2c1cc(Sc1ccc(F)cc1F)c1nsnc21` ?
Response: 102

Prompt: Any idea what growth at 10 µM was measured for `COc1ccc(Sc2cc3c(c4nsnc24)C(=O)c2ccccc2C3=O)cc1` ?
Response: 101

---

# Tested on: U-251
# EXPERIMENT SUMMARY: Cytotoxicity against human U251 cells after 48 hrs by SRB assay
# Format: functional
# CONDITIONS: U-251, 48 h
Could you please report measured TGI for the items listed next?
Answer with the number, then the unit.

Prompt: Any idea what TGI was measured for `O=C1c2ccccc2C(=O)c2c1cc(SCc1ccccc1)c1nsnc21` ?
Response: 14 µM

Prompt: Any idea what TGI was measured for `O=C1c2ccccc2C(=O)c2c1cc(Sc1ccccc1Br)c1nsnc21` ?
Response: 31.7 µM

Prompt: Any idea what TGI was measured for `O=C1c2ccccc2C(=O)c2c1cc(Sc1cccc(Cl)c1)c1nsnc21` ?
Response: 4 µM

Prompt: Any idea what TGI was measured for `O=C1c2ccccc2C(=O)c2c1cc(Sc1ccc(F)cc1F)c1nsnc21` ?
Response: 4.35 µM

Prompt: Any idea what TGI was measured for `CC(C)Sc1cc2c(c3nsnc13)C(=O)c1ccccc1C2=O` ?
Response: 3.16 µM

This collection of values is drawn from ChEMBL document CHEMBL3621107.
